- TEST_SYSTEM: CDK1/Cyclin B1 (Homo sapiens, UniProt P06493)
- Sequence (P06493 whole entry): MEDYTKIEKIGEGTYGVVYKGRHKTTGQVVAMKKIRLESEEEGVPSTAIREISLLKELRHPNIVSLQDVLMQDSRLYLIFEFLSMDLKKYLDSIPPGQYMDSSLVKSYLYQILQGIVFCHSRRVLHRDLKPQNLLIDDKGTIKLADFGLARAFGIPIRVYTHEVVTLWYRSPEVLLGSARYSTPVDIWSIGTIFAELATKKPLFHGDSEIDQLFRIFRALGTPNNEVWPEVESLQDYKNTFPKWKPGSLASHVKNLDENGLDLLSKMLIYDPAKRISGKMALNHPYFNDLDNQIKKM
- Sequence (P14635 whole entry partner): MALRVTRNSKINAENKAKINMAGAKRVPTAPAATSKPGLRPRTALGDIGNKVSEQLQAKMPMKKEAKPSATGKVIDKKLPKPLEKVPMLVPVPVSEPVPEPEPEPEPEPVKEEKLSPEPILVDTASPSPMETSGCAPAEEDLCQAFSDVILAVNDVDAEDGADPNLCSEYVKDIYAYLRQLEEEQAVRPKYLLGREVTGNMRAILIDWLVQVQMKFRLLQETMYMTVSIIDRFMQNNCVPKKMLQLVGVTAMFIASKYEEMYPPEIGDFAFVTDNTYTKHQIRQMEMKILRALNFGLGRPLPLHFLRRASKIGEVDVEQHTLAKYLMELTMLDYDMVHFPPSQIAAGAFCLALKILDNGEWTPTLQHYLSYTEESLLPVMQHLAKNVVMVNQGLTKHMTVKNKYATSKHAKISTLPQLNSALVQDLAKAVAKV
- METHOD_DESCRIPTION: CDK1/Cyclin B1 Biochemical Assay (TR-FRET), 0.015 mM ATP
- CONDITION_LABEL: 0.15 μM Rb (Ser780)-biotin substrate, pH7.0, 60 min preincubation, 120 min reaction, room temperature
pIC50: −log10 of the molar value.
MEASUREMENT_NAME: pIC50

Solved cases below.
{"COMPOUND": "Cc1cc2c(cc1Nc1cc([C@@H]3CC[C@H](OC(=O)NC(C)C)C3)[nH]n1)CNS2(=O)=O (relative stereo) [Example 25]", "pIC50": 6.57}
{"COMPOUND": "CC(C)NC(=O)O[C@H]1CC[C@@H](c2cc(Nc3ccc4c(c3F)CS(=O)(=O)N4CCO)n[nH]2)C1 (single isomer, unassigned) [Example 271b]", "pIC50": 7.31}

A. O=C(NC1CCC12CC2)O[C@H]1CC[C@@H](c2cc(Nc3ccc4c(c3F)CNS4(=O)=O)n[nH]2)C1 (relative stereo) [Example 152]
B. [2H]C([2H])([2H])N1c2ccc(Nc3cc([C@@H]4CC[C@H](OC(=O)NC5(C)CC5)C4)[nH]n3)c(F)c2CS1(=O)=O (relative stereo) [Example 270]
C. CC(=O)N1CCC(N2Cc3c(ccc(Nc4cc([C@@H]5CC[C@H](OC(=O)NC(C)C)C5)[nH]n4)c3F)S2(=O)=O)CC1 (relative stereo) [Example 78]
D. CC(C)NC(=O)O[C@H]1CC[C@@H](c2cc(Nc3ccc4c(c3F)CN(C3CCCN(C)C3=O)S4(=O)=O)n[nH]2)C1 (relative stereo) [Example 88]
E. COCCN1c2ccc(Nc3cc([C@@H]4CC[C@H](OC(=O)NC(C)C)C4)[nH]n3)c(F)c2CS1(=O)=O (relative stereo) [Example 252]
Please give the order of these compounds when sorted by pIC50, largest value leading. Provide the labels, sequenced as the question asks.
B, E, A, C, D

P. CC(C)NC(=O)O[C@H]1CC[C@@H](c2cc(Nc3ccc4c(c3F)CN(CC3COC3)S4(=O)=O)n[nH]2)C1 (relative stereo) [Example 97]
Q. CC(C)NC(=O)O[C@H]1CC[C@@H](c2cc(Nc3ccc4c(c3F)CN(C3CN(C)C3)S4(=O)=O)n[nH]2)C1 (relative stereo) [Example 91]
Please indicate which item has the smaller measured pIC50: P versus Q Use the label to indicate which entry you chose.
Q

I. O=C(NC1CCC1)O[C@H]1CC[C@@H](c2cc(Nc3ccc4c(c3F)CNS4(=O)=O)n[nH]2)C1 (relative stereo) [Example 157]
II. CC1(NC(=O)O[C@H]2C[C@@H](c3cc(Nc4cc5c(cc4F)S(=O)(=O)NC5)n[nH]3)C2)CC1 [Example 411]
III. CC(C)NC(=O)O[C@H]1CC[C@@H](c2cc(Nc3ccc4c(c3)C3(CCC3)S(=O)(=O)N4)n[nH]2)C1 (relative stereo) [Example 199]
IV. CN1Cc2c(ccc(Nc3cc([C@@H]4CC[C@H](OC(=O)NC5COC5)C4)[nH]n3)c2F)S1(=O)=O (relative stereo) [Example 336]
V. CC1(NC(=O)O[C@@H]2CC[C@H](c3cc(Nc4ccc5c(c4F)CS(=O)(=O)N5)n[nH]3)C2)CC1 (single isomer, unassigned) [Example 388a]
Order the entries by their reported pIC50, beginning at the minimum. To answer, write out the labels according to the requested order.
IV, II, I, III, V

I. CC(C)NC(=O)O[C@H]1CC[C@@H](c2cc(Nc3cc4c(cc3F)N(C)S(=O)(=O)C4)n[nH]2)C1 (relative stereo) [Example 300]
II. O=C(O[C@H]1CC[C@@H](c2cc(Nc3ccc4c(c3F)CNS4(=O)=O)n[nH]2)C1)N1CCOCC1 (relative stereo) [Example 373]
III. CC[C@H](C)NC(=O)O[C@H]1CC[C@@H](c2cc(Nc3ccc4c(c3F)CN(C)S4(=O)=O)n[nH]2)C1 (single isomer, unassigned) [Example 123b]
IV. [2H]C([2H])([2H])N1Cc2cc(Nc3cc([C@@H]4CC[C@H](OC(=O)NC(C)C)C4)[nH]n3)c(F)cc2S1(=O)=O (relative stereo) [Example 46]
List items by pIC50 in falling order. Thanks in advance for listing the labels in the requested order.
III, I, II, IV
